Here the recorded Ammonia LT Panellist 2 Cond II is given for each entry.
Tested on: ammonia lateralization threshold
assay: Panel evaluation of the lateralization threshold (LT) of ammonia alone and in combination with a PRM
Assay type: in vivo, panellists
test-settings: Table 3; ammonia stimulus combined with PRM stimulus (concentration of Table 2 in propylene glycol)
Include the unit right after the number.

Previously resolved entries follow.
CCCCCC1C(=O)CCC1CC(=O)OC (centres unmarked) [Hedione ®, Methyl dihydrojasmonate]
22.9 ppm
CC(C)CC1CC(C)(O)CCO1 (centres unmarked)
7.3 ppm
C/C=C/C(=O)C1C(C)C=CCC1(C)C (centres unmarked)
225.5 ppm
CC(C)=CCCC(C)CCO (centres unmarked)
225.5 ppm
CC(C)=CCC[C@](C)(O)[C@@H]1CC=C(C)CC1
172.7 ppm

# lookup: Ammonia LT Panellist 2 Cond II of COC(=O)c1ccccc1 [Methyl benzoate] 60 ppm

If you can, please state the reported Ammonia LT Panellist 2 Cond II value of CCCCC[C@@H]1C(=O)CC[C@@H]1CC(=O)OC . 225.5 ppm

Give its Ammonia LT Panellist 2 Cond II value. Item: CC(CC=O)CCCC(C)(C)O (centres unmarked) [Hydroxycitronellal] 56.1 ppm

Need Ammonia LT Panellist 2 Cond II of CC1(C)CCCC2(C)C1CCC1(C)OCCC12 (centres unmarked) , thanks. 225.5 ppm

These measurements were taken from patent US20130287721A1.
